Test system: SN12C
TEST_METHOD_NOTES: NCI tumour cell line growth inhibition, 48 h
The source made the active and inactive calls. Cut-off read from the data, not from the text of the source: active = GI50 up to about 1.1 µM and inactive = higher.
OBSERVATION_TYPE: GI50

These solved cases illustrate the format of a correct answer.
- COMPOUND: "C=C=C(CC)C(C(=O)OC)N(CC)CC (stereo not drawn)"
  MEASURED_ON: "SN12C"
  OBSERVATION_TYPE: "GI50"
  ENDPOINT_VALUE: "> 100 µM (inactive)"
- COMPOUND: "CC1=C(C(=O)OCCO[N+](=O)[O-])C(c2cccc([N+](=O)[O-])c2)C(C(=O)OC(C)C)=C(C)N1 (stereo not drawn)"
  MEASURED_ON: "SN12C"
  OBSERVATION_TYPE: "GI50"
  ENDPOINT_VALUE: "17.4 µM (inactive)"

Now let's try a different one.
## Task Report GI50 for COC(=O)C12C3C4C5C3(C#N)C1C5(C(=O)OC)C42C(=O)N(C(C)C)C(C)C (stereo not drawn) please.
## Result > 100 µM (inactive)

* * *

Test system: MOLT-4
TEST_METHOD_NOTES: NCI tumour cell line growth inhibition, 48 h
The source made the active and inactive calls. Cut-off read from the data, not from the text of the source: active = GI50 up to about 1.1 µM and inactive = higher.
Respond only with the outcome that fits, drawn from active, inactive

- COMPOUND: "COc1cc2c(c(OC)c1)C1(CC(CC#N)C2)SCCS1 (configuration not stated)"
  CAT: "inactive"

Next, consider the following compound.
## Task // param item: CCCC[S+]([O-])CC(CO)NC(=O)/C=C/c1c(C)[nH]c(=O)[nH]c1=O (configuration not stated) ; yields the recorded call
## Result inactive

* * *

System: NCI-H522
TEST_METHOD_NOTES: NCI tumour cell line growth inhibition, 48 h
Active and inactive are the calls of the source. Rule as the data show it: active = GI50 up to about 1.1 µM and inactive = higher.
OBSERVATION_TYPE: GI50

- MOLECULE: "COC1=C(Cl)C(=O)c2c(O)ccc(O)c2C1=O"
  OBSERVATION_TYPE: "GI50"
  ENDPOINT_VALUE: "0.119 µM (active)"

## Task Report GI50 for CSc1nnc2n1-c1ccccc1SCC2 please.
## Result > 100 µM (inactive)

## Task Now this one: CCOc1ccc(Nc2nc(N)nc(N)c2N=O)cc1
## Result 55.5 µM (inactive)

## Task Now this one: S=C(S)N1CCN(c2cccc(Cl)c2)CC1
## Result > 100 µM (inactive)

## Task Now this one: NC(=O)c1cccc(OCC(O)CO)c1 (stereo not given)
## Result > 100 µM (inactive)

* * *

Tested on: HL-60
TEST_METHOD_NOTES: NCI tumour cell line growth inhibition, 48 h
Active and inactive are the calls of the source. No stated cut-off is given here; in the data, active = GI50 up to about 1.1 µM and inactive = higher.
Respond only with the outcome that fits, drawn from active, inactive

Solved cases (2 shown):
- MOLECULE: "CC(C)/C=C1\\CCC(CN(C)C)C1=O (stereo not drawn)"
  CAT: "active"
- MOLECULE: "CCCCSC1=N/C(=C\\c2ccco2)C(Cl)=N1"
  CAT: "inactive"

Next, consider the following molecule.
## Task // param item: O=[N+]([O-])C=C(c1ccc(Cl)cc1)c1ccc(Cl)cc1 ; yields the recorded call
## Result inactive

* * *

Test system: UACC-62
TEST_METHOD_NOTES: NCI tumour cell line growth inhibition, 48 h
Active and inactive are the calls of the source. No stated cut-off is given here; in the data, active = GI50 up to about 1.1 µM and inactive = higher.
Respond only with the outcome that fits, drawn from active, inactive

- COMPOUND: "ON(CCc1ccncc1)Cc1ccccc1"
  CAT: "inactive"

## Task // param item: N#CC(C#N)=Cn1c(=S)[nH]c2ccc([N+](=O)[O-])cc21 ; yields the recorded call
## Result inactive

## Task Now this one: O=C(Nc1cccc([N+](=O)[O-])c1)C(=O)C(C(=O)c1ccccc1F)C1OC(=O)C2C=CC=CC21 (stereo unspecified)
## Result inactive

## Task Now this one: Cc1cc(N(C)c2ccccc2)nc(N(C)c2ccccc2)n1
## Result inactive

## Task Now this one: C[C@]12CCC(=O)O[C@H]1CCCCO2
## Result inactive

## Task Now this one: COc1ccc(-c2[nH]c(-c3ccc(OC)cc3)c(-c3ccccn3)c2-c2ccccn2)cc1
## Result inactive

## Task Now this one: O=C1CN(c2ccccc2)Cc2nc(Cl)ccc2N1
## Result inactive

* * *

System: TK-10
TEST_METHOD_NOTES: NCI tumour cell line growth inhibition, 48 h
Activity calls are given as the source filed them. Rule as the data show it: active = GI50 up to about 1.1 µM and inactive = higher.
Respond only with the outcome that fits, drawn from active, inactive

Solved cases (5 shown):
- MOLECULE: "N#CC(c1ccnc(Cl)n1)c1nc2ccccc2s1 (stereo not given)"
  CAT: "inactive"
- MOLECULE: "O=Nn1c2ccccc2c2cc([N+](=O)[O-])ccc21"
  CAT: "inactive"
- MOLECULE: "COc1ccc(-c2cc(-c3ccccc3)nc3c2CC(=O)Nc2ccccc2-3)cc1OC"
  CAT: "inactive"
- MOLECULE: "Cc1ccc(C(=O)C#Cc2cn(C3CC(O)C(CO)O3)c(=O)[nH]c2=O)cc1 (stereo not given)"
  CAT: "inactive"
- MOLECULE: "CC1CCSC(N(C(=O)N(C)c2ccccc2)c2ccccc2)=N1 (stereo not given)"
  CAT: "inactive"

## Task // param item: CCOC(=O)C1=CN(Cc2ccccc2)C2ON=C(c3ccc(Cl)cc3)C2C1 (stereo not given) ; yields the recorded call
## Result inactive

## Task Now this one: COc1ccc(S(=O)(=O)Nc2ccc(-c3csc(N4C(=O)/C(=C/c5cccs5)N=C4c4ccccc4)n3)cc2)cc1Cl
## Result inactive

## Task Now this one: CC1CC[C@@]2(OC1)OC1C[C@H]3[C@@H]4CC=C5C[C@@H](OC6OC(CO)C(OC7OC(CO)C(O)C(O)C7O)C(O)C6OC6OC(C)C(O)C(O)C6O)CC[C@]5(C)[C@H]4CC[C@]3(C)C1[C@@H]2C (stereo not given in full)
## Result active

## Task Now this one: COc1ccc2oc(OC)c(CC=C(C)C)c(=O)c2c1C
## Result inactive

## Task Now this one: O=C(Nc1ccc2[nH]c3c(-c4ccccc4)nccc3c2c1)c1ccccc1[N+](=O)[O-]
## Result inactive

* * *

System: SW-620
TEST_METHOD_NOTES: NCI tumour cell line growth inhibition, 48 h
The source made the active and inactive calls. Cut-off read from the data, not from the text of the source: active = GI50 up to about 1.1 µM and inactive = higher.
Respond only with the outcome that fits, drawn from 1 = active, -1 = inactive

Solved cases (5 shown):
- COMPOUND: "O=C(O)C1Cc2c([nH]c3ccccc23)C(CCCCO)N1 (stereo unspecified)"
  CAT: -1
- COMPOUND: "CC[C@@]1(O)C(=O)OCc2c1cc1n(c2=O)Cc2c-1nc1ccccc1c2/C=N/c1ccccc1N[C@@H]1c2cc3c(cc2[C@@H](c2cc(OC)c(O)c(OC)c2)[C@H]2C(=O)OC[C@@H]21)OCO3"
  CAT: 1
- COMPOUND: "COc1ccc2c(c1OC)C(=O)N/C2=C\\c1c(CCN(C)C)cc2c(c1OC)OCO2"
  CAT: -1
- COMPOUND: "CCOC(=O)c1cn2c(n1)sc1cc(C)c(C)cc12"
  CAT: -1
- COMPOUND: "COc1cc2cc[n+]3c4cc(OC)c(OC)cc4c(C)cc3c2cc1OC"
  CAT: -1

## Task // param item: N#CC(C#N)=Cn1c(=S)[nH]c2ccc([N+](=O)[O-])cc21 ; yields the recorded call
## Result -1

## Task Now this one: N#CC(c1ccccc1)N(CCc1ccccc1)C(=O)Oc1ccccc1 (stereo unspecified)
## Result -1

## Task Now this one: O=C1/C(=C\c2ccc(-c3ccc(Cl)cc3Cl)o2)SC2NC(COc3ccc(Cl)cc3)=NN12 (stereo unspecified)
## Result -1

## Task Now this one: Cc1ccc(S(=O)(=O)N(CC(O)COc2ccccc2)c2c(F)cccc2F)cc1 (stereo unspecified)
## Result -1

* * *

GI50 by entry:
Test system: MDA-MB-231
TEST_METHOD_NOTES: NCI tumour cell line growth inhibition, 48 h
Active and inactive are the calls of the source. Cut-off read from the data, not from the text of the source: active = GI50 up to about 1.1 µM and inactive = higher.

- COMPOUND: "CCOC(=O)Cc1cnc(NC(NC(=O)CC)(C(F)(F)F)C(F)(F)F)s1"
  MEASURED_ON: "MDA-MB-231"
  GI50: "> 100 µM (inactive)"
- COMPOUND: "O=C(Cc1ccccc1CCO)NCCc1ccccc1"
  MEASURED_ON: "MDA-MB-231"
  GI50: "> 100 µM (inactive)"
- COMPOUND: "O=C(NC(Cl)(C(F)(F)F)C(F)(F)F)c1ccc(F)cc1"
  MEASURED_ON: "MDA-MB-231"
  GI50: "> 100 µM (inactive)"
- COMPOUND: "COc1cc(CCN)c(OC)c(OC)c1"
  MEASURED_ON: "MDA-MB-231"
  GI50: "> 100 µM (inactive)"
- COMPOUND: "CN1CCN(CCCCN2c3ccccc3Sc3ccc(C(=O)c4ccccc4)cc32)CC1"
  MEASURED_ON: "MDA-MB-231"
  GI50: "1.9 µM (inactive)"

## Task Identify the measured GI50 of COc1ccc(NC(=O)CC(=O)N2N=C(C)C(/N=N\c3ccc(S(=O)(=O)c4ccc(/N=N/C5C(=O)N(C(=O)CC(=O)Nc6ccc(OC)cc6)N=C5C)cc4)cc3)C2=O)cc1 (stereo not given) for MDA-MB-231.
## Result > 100 µM (inactive)

## Task Now this one: CCOC(=O)C1=NN(c2ccc(C)cc2)C2=CC(C)=NN(C)C(=S)N21
## Result 82.4 µM (inactive)

## Task Now this one: CCCCCCCCCCOCCOCCOCCOCCCCC(O)CCCCCCCC1=C[C@H](C)OC1=O (stereo not given in full)
## Result 14.1 µM (inactive)

## Task Now this one: COc1ccc(-c2cc(-c3ccccc3)nc3c2CC(=O)Nc2ccccc2-3)cc1OC
## Result 1.32 µM (inactive)

## Task Now this one: COC1=C(Cl)C(=O)c2c(O)ccc(O)c2C1=O
## Result 1.66 µM (inactive)
